This collection of values is drawn from patent US9102614B2.

Measured pEC50 values are reported for all entries that follow.
Test system: HIV-IIIb
Assay: Test A: Antiviral Assays in MT4 Cells
Format: cell-based
Conditions: Human immunodeficiency virus 1, IIIB, MT4, 120 h
pEC50: −log10 of the molar value.
Measured Property: pEC50

1. Cc1cc2cc(F)c(F)cc2c(-c2ccc3c4c(ccnc24)CCO3)c1[C@H](OC(C)(C)C)C(=O)O [Compound 108] :: 7.55
2. Cc1cc2c(C#CCN(C)C)cccc2c(-c2ccc(Cl)cc2)c1C(OC(C)(C)C)C(=O)O (stereo not shown) [Compound 39] :: 6.15
3. Cc1cc2ccccc2c(-c2cccc(N3CCC3)c2)c1[C@H](OC(C)(C)C)C(=O)O [Compound 19] :: 5.27
4. Cc1cc2c(F)cc(F)cc2c(-c2ccc3c4c(ccnc24)CCO3)c1[C@H](OC(C)(C)C)C(=O)O [Compound 110] :: 7.17
